Where these numbers come from: PubChem BioAssay AID1963978

Test system: 616215-338-R-J1-PDC spheroids with HUVEC/MSC, viability
protocol_summary: Anticancer human tumor 616215-338-R-J1-PDC patient-derived colon adenocarcinoma cell line growth inhibition [PI3K]
assay_context: second compound 0.00316 µM; first compound 0.000316 µM; stronger effect = lower value
Reported viability, T/C values are given for each entry in this list.
result_type: viability, T/C (%)

>>> df
                                   compound   val
0  CC(=O)c1c(C)c2cnc(Nc3ccc(N4CCNCC4)cn3)nc2n(C2CCCC2)c1=O + CC(Nc1ccc2c(c1)OCCn1cc(N3C(=O)OCC3C(F)F)nc1-2)C(N)=O  87.7
1  CC(=O)c1c(C)c2cnc(Nc3ccc(N4CCNCC4)cn3)nc2n(C2CCCC2)c1=O + COc1c(OCCCN2CCOCC2)ccc2c3n(c(=NC(=O)c4cnc(N)nc4)nc12)CCN3    91
2  Cn1ncnc1[C@H]1c2n[nH]c(=O)c3cc(F)cc(c23)N[C@@H]1c1ccc(F)cc1 + CC(Nc1ccc2c(c1)OCCn1cc(N3C(=O)OCC3C(F)F)nc1-2)C(N)=O   100

* * *

System: 616215-338-R-J1-PDC spheroids with HUVEC/MSC, viability
protocol_summary: Anticancer human tumor 616215-338-R-J1-PDC cell line growth inhibition [PI3K];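 note: spheroids exposed to agents for seven days before the viability read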
assay_context: second compound 0.01 µM; first compound 10 µM; stronger effect = lower value

compound	viability, T/C [%]
C[C@@H](NC(=O)c1ncnc(N)c1Cl)c1ncc(C(=O)Nc2cc(C(F)(F)F)c(Cl)cn2)s1 + CC(Nc1ccc2c(c1)OCCn1cc(N3C(=O)OCC3C(F)F)nc1-2)C(N)=O	74.8
C=CC(=O)N1CCN(c2nc(=O)n(-c3c(C)ccnc3C(C)C)c3nc(-c4c(O)cccc4F)c(F)cc23)C(C)C1 (stereo unspecified) + COc1c(OCCCN2CCOCC2)ccc2c3n(c(=NC(=O)c4cnc(N)nc4)nc12)CCN3	78
CC1(C)CCC(CN2CCN(c3ccc(C(=O)NS(=O)(=O)c4ccc(NCC5CCOCC5)c([N+](=O)[O-])c4)c(Oc4cnc5[nH]ccc5c4)c3)CC2)=C(c2ccc(Cl)cc2)C1 + CC(Nc1ccc2c(c1)OCCn1cc(N3C(=O)OCC3C(F)F)nc1-2)C(N)=O	2.57
C=CC(=O)N1CCN(c2nc(=O)n(-c3c(C)ccnc3C(C)C)c3nc(-c4c(O)cccc4F)c(F)cc23)C(C)C1 (stereo unspecified) + CC(Nc1ccc2c(c1)OCCn1cc(N3C(=O)OCC3C(F)F)nc1-2)C(N)=O	95.6
CC1(C)CCC(Nc2ncc(C(F)(F)F)c(-c3c[nH]c4c(P(C)(C)=O)c(C#N)ccc34)n2)CN1 (stereo unspecified) + CC(Nc1ccc2c(c1)OCCn1cc(N3C(=O)OCC3C(F)F)nc1-2)C(N)=O	0.42
CC(C)NCC(C(=O)N1CCN(c2ncnc3c2C(C)CC3O)CC1)c1ccc(Cl)cc1 (stereo unspecified) + CC(Nc1ccc2c(c1)OCCn1cc(N3C(=O)OCC3C(F)F)nc1-2)C(N)=O	32.9
Cn1ncc(Cl)c1-c1cc(C(=O)NC(CN)Cc2cccc(F)c2)sc1Cl (stereo unspecified) + CC(Nc1ccc2c(c1)OCCn1cc(N3C(=O)OCC3C(F)F)nc1-2)C(N)=O	33.6
CC(C)NCC(C(=O)N1CCN(c2ncnc3c2C(C)CC3O)CC1)c1ccc(Cl)cc1 (stereo unspecified) + COc1c(OCCCN2CCOCC2)ccc2c3n(c(=NC(=O)c4cnc(N)nc4)nc12)CCN3	21.4
Cn1nccc1Nc1nccc(-c2ccn(C(CO)c3ccc(Cl)c(F)c3)c(=O)c2)n1 (stereo unspecified) + COc1c(OCCCN2CCOCC2)ccc2c3n(c(=NC(=O)c4cnc(N)nc4)nc12)CCN3	28.8
CCCS(=O)(=O)Nc1ccc(F)c(C(=O)c2c[nH]c3ncc(-c4ccc(Cl)cc4)cc23)c1F + CC(Nc1ccc2c(c1)OCCn1cc(N3C(=O)OCC3C(F)F)nc1-2)C(N)=O	2.65
C#Cc1c(F)ccc2cc(O)cc(-c3ncc4c(N5CC6CCC(C5)N6)nc(OCC56CCCN5CC(F)C6)nc4c3F)c12 (stereo unspecified) + COc1c(OCCCN2CCOCC2)ccc2c3n(c(=NC(=O)c4cnc(N)nc4)nc12)CCN3	43.5
